Each recorded value in this set is attributed to ChEMBL document CHEMBL4813932.

Tested on: Escherichia coli
Assay: microbe, parasite or virus in culture
Format: functional
Conditions: DSM 8579, time 48 hrs
Description: Antibiofilm activity against Escherichia coli DSM 8579 assessed as inhibition of biofilm formation at 80 ug/ml measured after 48 hrs by crystal violet staining based assay relative to control
Label scheme for inhibition at 80 µg/mL: lower than 20% is FALSE, 20% and above is TRUE.

[[record]]
compound = "COc1cc2oc(-c3ccc(O)cc3)cc(=O)c2c(O)c1OC [CIRSIMARITIN]"
qualitative_label = "TRUE"

[[record]]
compound = "CC(C)c1cc2c(cc1O)[C@@]1(C)CCCC(C)(C)[C@@H]1CC2 [FERRUGINOL]"
qualitative_label = "TRUE"

[[record]]
compound = "CC(=O)O[C@H]1CC(C)(C)[C@@H]2CC[C@]3(C)C[C@]12CC[C@H]3O"
qualitative_label = "TRUE"

[[record]]
compound = "COc1c(C(C)C)cc2c(c1O)[C@]1(C(=O)O)CCCC(C)(C)[C@@H]1CC2 (relative stereo)"
qualitative_label = "TRUE"

[[record]]
compound = "COc1c(C(C)C)cc2c(c1O)[C@@]1(C(=O)O)CCCC(C)(C)[C@@H]1CC2"
qualitative_label = "TRUE"

[[record]]
compound = "CC1(C)C[C@H]2[C@H]1CC[C@@]1(C)C[C@@]2(O)CC[C@@H]1O"
qualitative_label = "TRUE"

[[record]]
compound = "CC(C)c1cc2c(c(O)c1O)C[C@@]1(O)[C@@H](O)CCC(C)(C)[C@@H]1CC2"
qualitative_label = "FALSE"

[[record]]
compound = "C=C1CC/C=C(/C)[C@H](O)C[C@@H]2[C@@H]1CC2(C)CO (some centres undefined)"
qualitative_label = "TRUE"

[[record]]
compound = "CC(C)c1cc2c(c(O)c1O)[C@@]13CCCC(C)(C)[C@@H]1C[C@@H]2OC3=O [CARNOSOL]"
qualitative_label = "FALSE"


---

System: Staphylococcus aureus
Assay: microbe, parasite or virus in culture
Assay type: functional
Conditions: ATCC 25923, time 48 hrs
Description: Antibiofilm activity against Staphylococcus aureus ATCC 25923 assessed as inhibition of biofilm formation at 8 ug/ml measured after 48 hrs by crystal violet staining based assay relative to control
Measured inhibition at 8 µg/mL accompanies every entry in the list below.
property: inhibition at 8 µg/mL (%)

[[record]]
compound = "C=C(C)[C@@H]1CC[C@]2(C(=O)O)CC[C@]3(C)[C@H](CC[C@@H]4[C@@]5(C)CC[C@H](O)C(C)(C)[C@@H]5CC[C@]43C)[C@@H]12 [BETULINIC ACID]"
property = "inhibition at 8 µg/mL"
numeric_readout = 75.2

[[record]]
compound = "CC1(C)C[C@H](O)[C@]23CC[C@@H](O)[C@](C)(CC[C@@H]12)C3"
property = "inhibition at 8 µg/mL"
numeric_readout = 0

[[record]]
compound = "CC(C)c1cc2c(c(O)c1O)[C@@]1(C(=O)O)CCCC(C)(C)[C@@H]1CC2 [CARNOSIC ACID]"
property = "inhibition at 8 µg/mL"
numeric_readout = 83.7

[[record]]
compound = "CC(C)c1cc2c(c(O)c1O)C[C@@]1(O)[C@@H](O)CCC(C)(C)[C@@H]1CC2"
property = "inhibition at 8 µg/mL"
numeric_readout = 79.7

[[record]]
compound = "CC(C)c1cc2c(cc1O)[C@@]1(C)CCCC(C)(C)[C@@H]1CC2 [FERRUGINOL]"
property = "inhibition at 8 µg/mL"
numeric_readout = 44.6


---

Measured inhibition at 8 µg/mL accompanies every entry in the list below.
System: Pectobacterium carotovorum
Assay: microbe, parasite or virus in culture
Type: functional
Conditions: ATCC 15713, time 48 hrs
Description: Antibiofilm activity against Pectobacterium carotovorum ATCC 15713 assessed as inhibition of biofilm formation at 8 ug/ml measured after 48 hrs by crystal violet staining based assay relative to control
property: inhibition at 8 µg/mL (%)

[[record]]
compound = "CC(C)c1cc2c(c(O)c1O)C[C@@]1(O)[C@@H](O)CCC(C)(C)[C@@H]1CC2"
result_unit = "%"
numeric_readout = 0

[[record]]
compound = "CC(C)c1cc2c(c(O)c1O)[C@@]13CCCC(C)(C)[C@@H]1[C@H](OC3=O)[C@H]2O"
result_unit = "%"
numeric_readout = 26.2

[[record]]
compound = "CC(C)c1cc2c(c(O)c1O)[C@@]1(C(=O)O)CCCC(C)(C)[C@@H]1CC2"
result_unit = "%"
numeric_readout = 25.8

[[record]]
compound = "CC(C)c1cc2c(c(O)c1O)[C@@]13CCCC(C)(C)[C@@H]1[C@H](OC3=O)[C@@H]2O [EPIROSMANOL]"
result_unit = "%"
numeric_readout = 53.8

[[record]]
compound = "CC(C)c1cc2c(c(O)c1O)[C@@]13CCCC(C)(C)[C@@H]1[C@@H](O)[C@@H]2OC3=O"
result_unit = "%"
numeric_readout = 66.9

[[record]]
compound = "CO[C@@H]1c2cc(C(C)C)c(O)c(O)c2[C@@]23CCCC(C)(C)[C@@H]2[C@@H]1OC3=O"
result_unit = "%"
numeric_readout = 67.7

[[record]]
compound = "CC(C)c1cc2c(c(O)c1O)[C@@]13CCCC(C)(C)[C@@H]1C[C@@H]2OC3=O"
result_unit = "%"
numeric_readout = 100

[[record]]
compound = "CCCCCC"
result_unit = "%"
numeric_readout = 97.8


---

System: Listeria monocytogenes
Assay: microbe, parasite or virus in culture
Type: functional
Details: ATCC 7644, time 48 hrs
Description: Antibiofilm activity against Listeria monocytogenes ATCC 7644 assessed as inhibition of biofilm formation at 8 ug/ml measured after 48 hrs by crystal violet staining based assay relative to control
Measured inhibition at 8 µg/mL accompanies every entry in the list below.
property: inhibition at 8 µg/mL (%)

[[record]]
compound = "CC(C)c1cc2c(c(O)c1O)[C@@]13CCCC(C)(C)[C@@H]1[C@@H](O)[C@@H]2OC3=O"
property = "inhibition at 8 µg/mL"
numeric_readout = 63.9

[[record]]
compound = "CC(=O)O[C@H]1CC(C)(C)[C@@H]2CC[C@]3(C)C[C@]12CC[C@H]3O"
property = "inhibition at 8 µg/mL"
numeric_readout = 23.3

[[record]]
compound = "CC(C)c1cc2c(c(O)c1O)[C@@]1(C(=O)O)CCCC(C)(C)[C@@H]1CC2"
property = "inhibition at 8 µg/mL"
numeric_readout = 0

[[record]]
compound = "COc1c(C(C)C)cc2c(c1O)[C@]1(C(=O)O)CCCC(C)(C)[C@@H]1CC2 (relative stereo)"
property = "inhibition at 8 µg/mL"
numeric_readout = 17.8


---

Measured inhibition at 8 µg/mL accompanies every entry in the list below.
Tested on: Staphylococcus aureus
Assay: microbe, parasite or virus in culture
Format: functional
Settings: ATCC 25923, time 48 hrs
property: inhibition at 8 µg/mL (%)

[[record]]
compound = "CC(C)c1cc2c(c(O)c1O)C1=C(CC2)C(C)(C)CCC1=O"
result_unit = "%"
numeric_readout = 0

[[record]]
compound = "CO[C@H]1c2cc(C(C)C)c(O)c(O)c2[C@@]23CCCC(C)(C)[C@@H]2[C@@H]1OC3=O"
result_unit = "%"
numeric_readout = 63.3

[[record]]
compound = "COc1cc2oc(-c3ccc(O)cc3)cc(=O)c2c(O)c1OC"
result_unit = "%"
numeric_readout = 6.6

[[record]]
compound = "C=CC(C)(O)C/C=C/C(C)(C)O (stereo not drawn)"
result_unit = "%"
numeric_readout = 40.7

[[record]]
compound = "CC(C)c1cc2c(c(O)c1O)[C@@]13CCCC(C)(C)[C@@H]1[C@H](OC3=O)[C@H]2O"
result_unit = "%"
numeric_readout = 79.9

[[record]]
compound = "C=C1CC/C=C(/C)[C@H](O)C[C@@H]2[C@@H]1CC2(C)CO (stereo partly drawn)"
result_unit = "%"
numeric_readout = 34.9

[[record]]
compound = "CCCCCC"
result_unit = "%"
numeric_readout = 93.7

[[record]]
compound = "CC(C)c1cc2c(c(O)c1O)[C@@]13CCCC(C)(C)[C@@H]1[C@@H](O)[C@@H]2OC3=O"
result_unit = "%"
numeric_readout = 56.2


---

System: Acinetobacter baumannii
Experiment: microbe, parasite or virus in culture
Assay type: functional
Conditions: ATCC 19606 = CIP 70.34 = JCM 6841, time 48 hrs
Description: Antibiofilm activity against Acinetobacter baumannii ATCC 19606 assessed as inhibition of bacterial metabolism within the biofilm at 8 ug/ml measured after 48 hrs by MTT assay relative to control
Label scheme for inhibition at 8 µg/mL: lower than 30% is f, 30% and above is t.

[[record]]
compound = "CCCCCC"
qualitative_label = "t"

[[record]]
compound = "CC(C)c1cc2c(c(O)c1O)[C@@]13CCCC(C)(C)[C@@H]1[C@@H](O)[C@@H]2OC3=O"
qualitative_label = "t"

[[record]]
compound = "CC(C)c1cc2c(c(O)c1O)[C@@]1(C(=O)O)CCCC(C)(C)[C@@H]1CC2"
qualitative_label = "t"

[[record]]
compound = "CC(C)c1cc2c(c(O)c1O)[C@@]13CCCC(C)(C)[C@@H]1[C@H](OC3=O)[C@H]2O"
qualitative_label = "f"

[[record]]
compound = "CC(C)c1cc2c(c(O)c1O)C[C@@]1(O)[C@@H](O)CCC(C)(C)[C@@H]1CC2"
qualitative_label = "t"

[[record]]
compound = "CC(C)c1cc2c(c(O)c1O)[C@@]13CCCC(C)(C)[C@@H]1C[C@@H]2OC3=O"
qualitative_label = "t"

[[record]]
compound = "CC(C)c1cc2c(c(O)c1O)[C@@]13CCCC(C)(C)[C@@H]1[C@H](OC3=O)[C@@H]2O [EPIROSMANOL]"
qualitative_label = "f"

[[record]]
compound = "CO[C@@H]1c2cc(C(C)C)c(O)c(O)c2[C@@]23CCCC(C)(C)[C@@H]2[C@@H]1OC3=O"
qualitative_label = "t"

